# System: S. typhimurium/E. coli reverse mutation, colony counts
# assay.notes: Bacterial reverse mutation test (aka Ames test) summary data;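 further: His-minus Salmonella and trp-minus E. coli WP2 uvrA pKM101 with or without liver S9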
Results filed as inconclusive are left out. The source made the active and inactive calls. How the calls were made is not given here.
observed.property: outcome

* CC12CCC(C1)C(C)(C)C2=O (stereo not given) | inactive; negative
* CC1(C)S[C@@H]2[C@H](NC(=O)[C@H](N)c3ccccc3)C(=O)N2[C@H]1C(=O)O | inactive; negative
* C=CC(=O)OCC(CC)(COC(=O)C=C)COC(=O)C=C | inactive; negative
* CC(C)c1ccccc1 | inactive; negative
* CCO | inactive; negative
* Nc1ncnc2c1ncn2[C@H]1CC[C@@H](CO)O1 | active; positive
* CCC(Cl)[N+](=O)[O-] (stereo not given) | active; positive
* CC(=O)C(C)=O | active; positive
* ClC=CCl | inactive; negative
* CCCCCCCCCCCC(=O)[O][Sn]([CH2]CCC)([CH2]CCC)[O]C(=O)CCCCCCCCCCC | inactive; negative
* CCCCCCCCCCCC[S][Sn]([CH2]CCC)([CH2]CCC)[S]CCCCCCCCCCCC | inactive; negative
* ClC/C=C/CCl | active; positive
* Nc1ccc(Cc2ccc(N)c(Cc3ccc(N)cc3)c2)cc1 | active; positive
* Cl/C=C/Cl | inactive; negative
* Nc1ccc(O)c([N+](=O)[O-])c1 | active; positive
